Documented MFI HisTag FITC across a set of binders
Test target: T1, CD33 (UniProt P20138 18-364, limits assumed)
T1 construct: whole, on cells; also called Siglec-3; CD33 on MOLM-13 cells
T1 sequence (P20138 18-364 limits assumed): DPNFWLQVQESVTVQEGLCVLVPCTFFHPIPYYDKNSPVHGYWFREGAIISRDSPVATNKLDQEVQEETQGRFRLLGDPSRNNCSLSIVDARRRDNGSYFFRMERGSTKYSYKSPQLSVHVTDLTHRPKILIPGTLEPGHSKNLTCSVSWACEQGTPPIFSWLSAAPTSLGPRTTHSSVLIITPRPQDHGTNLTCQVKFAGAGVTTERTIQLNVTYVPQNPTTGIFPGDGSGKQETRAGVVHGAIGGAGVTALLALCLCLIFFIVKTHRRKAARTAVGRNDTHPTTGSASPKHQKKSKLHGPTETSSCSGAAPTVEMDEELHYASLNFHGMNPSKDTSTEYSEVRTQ
Test protocol: flow cytometry, MOLM-13 cells, anti-His-FITC detection
// keep it numeric: no unit symbol after the value

Here is how some binders turned out for MFI HisTag FITC.
>  <Binder>
CD33 BRIDGE variant B7 (Fab, V domains shown, Lintuzumab-based Fab bridging molecule) VH: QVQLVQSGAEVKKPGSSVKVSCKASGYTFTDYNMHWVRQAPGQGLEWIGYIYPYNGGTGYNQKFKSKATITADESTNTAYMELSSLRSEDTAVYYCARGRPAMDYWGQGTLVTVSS VL: DIQMTQSPSSLSASVGDRVTITCRASESVDNYGISFMNWFQQKPGKAPKLLIYAASNQGSGVPSRFSGSGSGTDFTLTISSLQPDDFATYYCQQSKEVPWTFGQGTKVEIKR

>  <Readout kind>
MFI HisTag FITC

>  <Endpoint result>
5.52

$$$$
>  <Binder>
CD33 PURIFIED BRIDGE (Fab, V domains shown, also called old variant; original E200 CD33 Fab bridging molecule derived from lintuzumab) VH: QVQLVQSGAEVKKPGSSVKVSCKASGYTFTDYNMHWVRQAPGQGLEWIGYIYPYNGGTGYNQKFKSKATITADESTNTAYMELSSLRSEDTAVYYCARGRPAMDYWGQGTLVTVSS VL: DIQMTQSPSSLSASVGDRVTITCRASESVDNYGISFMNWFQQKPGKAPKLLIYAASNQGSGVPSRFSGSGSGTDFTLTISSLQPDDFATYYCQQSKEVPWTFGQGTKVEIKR

>  <Readout kind>
MFI HisTag FITC

>  <Endpoint result>
7.12

$$$$

stdin: # MFI HisTag FITC lookup, item CD33 BRIDGE variant B25 (Fab, V domains shown, Lintuzumab-based Fab bridging molecule) VH: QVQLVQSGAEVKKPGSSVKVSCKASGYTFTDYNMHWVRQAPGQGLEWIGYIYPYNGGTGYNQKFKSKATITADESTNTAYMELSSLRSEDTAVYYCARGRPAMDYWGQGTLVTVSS VL: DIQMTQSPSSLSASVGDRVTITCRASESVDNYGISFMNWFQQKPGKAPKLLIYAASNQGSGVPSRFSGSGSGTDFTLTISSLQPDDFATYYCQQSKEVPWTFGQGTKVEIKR
stdout: 7.29
